# System: U251 CNS
# TEST_SUMMARY: NCI-60 one-dose screen, 48 h
# EXPERIMENTAL_CONTEXT: 10 µM unless noted
About 83,000 compounds went through this panel and 20% of them were active in at least one assay; those are over-represented in the sample as a whole. The source made the active and inactive calls. The calls were made as follows: active = growth percent below 10; inactive = the rest.
Possible outcomes: 1 for active, 0 for inactive

| COMPOUND | SYSTEM | LABEL_VALUE |
| --- | --- | --- |
| CC/C(=C(/c1ccc(Cl)cc1)c1ccc(OCCN(CC)CC)cc1)c1ccc(OC)cc1 | U251 CNS | 0 |
| CCOC(=O)c1c(N)sc2cc(O)ccc12 | U251 CNS | 0 |
| O=c1ccc2nc(-c3ccccc3)nn(-c3ccccn3)c-2c1 | U251 CNS | 0 |
| CCNCCNc1c(C)c(-c2ccc(C(F)(F)F)cc2)c(C#N)c2nc3ccccc3n12 | U251 CNS | 0 |
| CC/C(=C(/c1ccc(Cl)cc1)c1ccc(OCCCN(C)C)cc1)c1ccc(OC)cc1 | U251 CNS | 1 |
| C(=N\Nc1nnc2n1N=C(c1ccccc1)CS2)/c1ccc(OCc2ccccc2)cc1 | U251 CNS | 0 |
| N#CC1=C(N)Oc2c(ccc3cccnc23)C1c1ccccc1 (stereo not given) | U251 CNS | 0 |
| CCOC(=O)/C=C1\S/C(=N\Nc2cc(=O)[nH]c3ccc(OC)cc23)N(c2ccccc2)C1=O | U251 CNS | 0 |
| Cc1ccc(-c2nnc(SCc3nc(N)nc(Nc4ccccc4F)n3)n2-c2ccccc2)cc1 | U251 CNS | 0 |
| CCOC(=O)c1cc(C(=O)c2cc(OC)cc(OC)c2)n2ccccc12 | U251 CNS | 0 |
| CN(C)CCCN(CCC1CCCCC1)CCC1CCCCC1 | U251 CNS | 0 |
| CC1(C)CCC[C@]23C(=O)O[C@](O)(C(=O)C4=C[C@@](C)(/C=C/CCCc5ccc6ccc7cccc8ccc5c6c78)CC[C@@]42O)[C@@H]13 | U251 CNS | 1 |
| CNC(=O)c1cc(Oc2ccc3nc(NC(=O)Nc4ccc(F)cc4F)sc3c2)ccn1 | U251 CNS | 0 |
| CC(=O)OCCOc1cc(Cl)c(Cl)cc1Cl | U251 CNS | 0 |
| O=C(CNc1ncco1)Nc1ccc(S(=O)(=O)c2ccc(NC(=O)CNc3ncco3)cc2)cc1 | U251 CNS | 1 |

---

# System: SF-268 CNS
# TEST_SUMMARY: NCI-60 one-dose screen, 48 h (100 = growth as untreated, 0 = no growth, -100 = all killed)
# EXPERIMENTAL_CONTEXT: 10 µM unless noted
The panel holds about 83,000 compounds, 20% with a hit somewhere; the sample as a whole holds those more often.
growth below 50% gives Condition not met; growth at or above it gives Condition met.

| COMPOUND | SYSTEM | LABEL_VALUE |
| --- | --- | --- |
| CC(C)(C)c1ccc(C(=O)Nc2sc3c(c2C#N)CCC(=O)C3)cc1 | SF-268 CNS | Condition not met |
| CCOc1ccc(-c2cc(C3(S(=O)(=O)c4ccc(C)cc4)CC=CC3)on2)cc1 | SF-268 CNS | Condition met |
| COc1cc(C(=O)/C=C/c2c(-c3cccs3)nc3sc(C)cn23)cc(OC)c1OC | SF-268 CNS | Condition not met |
| Cc1nc2sc(C(=O)Nc3ccccc3)c(N)c2cc1C(O)c1ccccc1 (configuration not stated) | SF-268 CNS | Condition not met |
| COc1cc2c(c(OC)c1OC)CCC(c1cccc(C(=O)Nc3ccc([N+](=O)[O-])cc3)c1)O2 (configuration not stated) | SF-268 CNS | Condition met |
| CCN1CCN(CCOc2ccc(CNc3ccc4nc(CCC5CCCCC5)[nH]c4c3)cc2)CC1 | SF-268 CNS | Condition met |
| O=C1c2c(c3c4cccnc4[nH]c3c3ccc4ccccc4c23)C(=O)N1O | SF-268 CNS | Condition not met |
| COC(=O)c1nc(-c2ccc(C)cc2)oc1N1CCOCC1 | SF-268 CNS | Condition met |
| COc1ccc(/C=C/C(=O)c2ccc(-n3cc(CN4CCN(c5cc6c(cc5F)c(=O)c(C(=O)O)cn6C5CC5)CC4)nn3)cc2)cc1 | SF-268 CNS | Condition met |
| CC1=C(C(=O)c2ccccc2)C(c2ccc3c(c2)OCO3)NC(=S)N1 (configuration not stated) | SF-268 CNS | Condition met |
| CC1(C)CC[C@]2(CO)CC[C@]3(C)C(=CC[C@@H]4[C@@]5(C)CCNCC(C)(C)[C@@H]5CC[C@]43C)[C@@H]2C1 | SF-268 CNS | Condition met |
| Cc1ccc(C(F)(F)F)cc1N1CCN(C(=O)[C@H]2C[C@H]2c2ccc(C(F)(F)F)nc2)CC1 | SF-268 CNS | Condition met |
